# MEASURED TARGET: Human Na^+-Glucose Cotransporter (Human SGLT2) (Homo sapiens, UniProt P31639)
# Sequence (P31639 whole entry): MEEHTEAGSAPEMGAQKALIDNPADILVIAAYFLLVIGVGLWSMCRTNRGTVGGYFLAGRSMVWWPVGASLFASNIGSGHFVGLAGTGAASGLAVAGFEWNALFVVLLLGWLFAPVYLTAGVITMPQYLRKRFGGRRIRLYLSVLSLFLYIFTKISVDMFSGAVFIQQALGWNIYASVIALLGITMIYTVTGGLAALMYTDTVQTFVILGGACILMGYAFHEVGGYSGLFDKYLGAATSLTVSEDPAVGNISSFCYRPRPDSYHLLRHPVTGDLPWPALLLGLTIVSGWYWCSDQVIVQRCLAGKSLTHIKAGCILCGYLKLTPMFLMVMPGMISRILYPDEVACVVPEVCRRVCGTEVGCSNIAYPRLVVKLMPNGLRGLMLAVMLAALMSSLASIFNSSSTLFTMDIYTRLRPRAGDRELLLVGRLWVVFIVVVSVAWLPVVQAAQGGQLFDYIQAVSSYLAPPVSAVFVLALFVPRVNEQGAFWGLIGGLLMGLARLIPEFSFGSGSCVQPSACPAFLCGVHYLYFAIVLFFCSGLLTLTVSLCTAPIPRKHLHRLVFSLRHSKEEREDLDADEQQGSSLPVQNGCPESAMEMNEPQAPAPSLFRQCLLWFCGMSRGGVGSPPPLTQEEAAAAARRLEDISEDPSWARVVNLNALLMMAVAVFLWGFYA
# EXPERIMENT NOTES: cell-based
QUANTITY MEASURED: pIC50
Reminder that pIC50 means the negative base-10 logarithm of the concentration expressed in mol/L.

**Query** What value of pIC50 has been reported for the following compound? OC[C@H]1O[C@@H](c2ccc(F)c(Cc3cc4ccccc4s3)c2)[C@H](O)[C@@H](O)[C@@H]1O [cocrystal of the present invention]
**Result** 8.24
